molecular target: Serotonin receptor 2a and 2c (5HT2A and 5HT2C) (Rattus norvegicus) (UniProt P08909+P14842); test: Ratio of binding affinity towards rat 5-HT2C and 5-HT2A receptors; format: protein assay
Result type: Ratio

Example entries and their recorded answers appear below.
COc1cc(CCCC2CCCCC2)ccc1CCN; < 1
COc1ccc(-c2ccccc2)cc1CCN; 1
COc1ccc(OCCc2ccccc2)cc1CCN; 3
COc1ccc(CCc2ccccc2)cc1CCN; 2
COc1ccc(CCCC2CCCCC2)cc1CCN; < 1
COc1cc(CCCCc2ccccc2)ccc1CCN; 1
COc1cc(-c2ccccc2)ccc1CCN; < 1
COc1cc(CCCc2ccccc2)ccc1CC(C)N (stereo not given); 11

Consider the additional compound presented here.
Exam item: # returns recorded Ratio (system: Serotonin receptor 2a and 2c (5HT2A and 5HT2C) (Rattus norvegicus) (UniProt P08909+P14842)) for `COc1cc(CCc2ccccc2)ccc1CCN`
Marked response: 4

====

Measurement record for 5-hydroxytryptamine receptor 2C (Rattus norvegicus); quantity recorded: Ki.

COc1cc(Cc2ccccc2)ccc1CCN; 93 nM

Exam item: # returns recorded Ki (system: 5-hydroxytryptamine receptor 2C (Rattus norvegicus)) for `COc1ccc(CCc2ccccc2)cc1CCN`
Marked response: 435 nM

Exam item: # returns recorded Ki (system: 5-hydroxytryptamine receptor 2C (Rattus norvegicus)) for `COc1ccc(OCCc2ccc(Br)cc2)cc1CCN`
Marked response: 115 nM

Exam item: # returns recorded Ki (system: 5-hydroxytryptamine receptor 2C (Rattus norvegicus)) for `COc1ccc(CCCCCc2ccccc2)cc1CCN`
Marked response: 150 nM

Exam item: # returns recorded Ki (system: 5-hydroxytryptamine receptor 2C (Rattus norvegicus)) for `COc1cc(CCCC2CCCCC2)ccc1CCN`
Marked response: 116 nM

Exam item: # returns recorded Ki (system: 5-hydroxytryptamine receptor 2C (Rattus norvegicus)) for `COc1cc(CCCCCc2ccccc2)ccc1CCN`
Marked response: 19 nM

Exam item: # returns recorded Ki (system: 5-hydroxytryptamine receptor 2C (Rattus norvegicus)) for `COc1cc(OCCc2ccccc2)ccc1CCN`
Marked response: 810 nM

Exam item: # returns recorded Ki (system: 5-hydroxytryptamine receptor 2C (Rattus norvegicus)) for COc1ccc(CCCc2ccccc2)cc1CC(C)N (centres undefined)
Marked response: 110 nM

Exam item: # returns recorded Ki (system: 5-hydroxytryptamine receptor 2C (Rattus norvegicus)) for `COc1cc(-c2ccccc2)ccc1CCN`
Marked response: 1520 nM

====

molecular target: 5-hydroxytryptamine receptor 2A (Rattus norvegicus, UniProt P14842); test: Binding affinity against rat 5-hydroxytryptamine 2A receptor using [3H]ketanserin as radioligand
Sequence (P14842 whole entry): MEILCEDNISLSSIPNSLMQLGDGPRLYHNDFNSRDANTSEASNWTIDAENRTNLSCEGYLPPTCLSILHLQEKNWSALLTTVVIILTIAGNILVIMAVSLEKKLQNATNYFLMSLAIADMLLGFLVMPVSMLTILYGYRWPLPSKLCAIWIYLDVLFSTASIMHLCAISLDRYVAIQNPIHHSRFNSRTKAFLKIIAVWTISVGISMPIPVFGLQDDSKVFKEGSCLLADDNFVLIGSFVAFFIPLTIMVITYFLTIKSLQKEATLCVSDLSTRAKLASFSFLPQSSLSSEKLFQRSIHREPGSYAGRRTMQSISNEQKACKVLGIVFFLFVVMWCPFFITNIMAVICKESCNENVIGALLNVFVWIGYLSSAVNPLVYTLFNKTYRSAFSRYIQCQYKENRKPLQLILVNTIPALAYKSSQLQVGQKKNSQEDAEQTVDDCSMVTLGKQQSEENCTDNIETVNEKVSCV
pKi: −log10 of the molar value.
param class (str): category from pKi; see ranges bin A (below 6), bin B (6 to below 7), bin C (7 or more)

Sample answers from the record:
COc1cc(CCCC2CCCCC2)ccc1CCN; bin B
COc1ccc(-c2ccccc2)cc1CCN; bin A
COc1ccc(CCCC2CCCCC2)cc1CCN; bin B
COc1ccc(CCCc2ccccc2)cc1CC(C)N (stereo not drawn); bin C
COc1ccc(O)cc1CCN; bin A
COc1cc(Cc2ccccc2)ccc1CCN; bin C
COc1ccc(OCCc2ccccc2)cc1CCN; bin B
COc1ccc(CCc2ccccc2)cc1CCN; bin B

Exam item: Band of `COc1ccc(Cc2ccccc2)cc1CCN` ?
Marked response: bin B

Exam item: Band of `COc1cc(CCc2ccccc2)ccc1CCN` ?
Marked response: bin C

Exam item: Band of `COc1ccc(OC)c(CCN)c1` ?
Marked response: bin A

Exam item: Band of `COc1cc(CCCc2ccccc2)ccc1CCN` ?
Marked response: bin C

Exam item: Band of `COc1cc(CCCCc2ccccc2)ccc1CCN` ?
Marked response: bin C

====

target: Serotonin receptor 2a and 2c (5HT2A and 5HT2C) (Rattus norvegicus) (UniProt P08909+P14842); test: Ratio of binding affinity towards rat 5-HT2C and 5-HT2A receptors; type: protein assay
The entries below are paired with their reported Ratio.
A bare number is all that is needed in reply.

COc1ccc(O)cc1CCN; 1
COc1ccc(I)cc1CCN; 2
COc1ccc(CCCc2ccccc2)cc1CCN; 11

Consider the additional compound presented here.
Exam item: # lookup: Ratio of `COc1ccc(OC)c(CCN)c1`
Marked response: 2

====

Biological target: 5-hydroxytryptamine receptor 2C (Rattus norvegicus)
Sequence (P08909 whole entry): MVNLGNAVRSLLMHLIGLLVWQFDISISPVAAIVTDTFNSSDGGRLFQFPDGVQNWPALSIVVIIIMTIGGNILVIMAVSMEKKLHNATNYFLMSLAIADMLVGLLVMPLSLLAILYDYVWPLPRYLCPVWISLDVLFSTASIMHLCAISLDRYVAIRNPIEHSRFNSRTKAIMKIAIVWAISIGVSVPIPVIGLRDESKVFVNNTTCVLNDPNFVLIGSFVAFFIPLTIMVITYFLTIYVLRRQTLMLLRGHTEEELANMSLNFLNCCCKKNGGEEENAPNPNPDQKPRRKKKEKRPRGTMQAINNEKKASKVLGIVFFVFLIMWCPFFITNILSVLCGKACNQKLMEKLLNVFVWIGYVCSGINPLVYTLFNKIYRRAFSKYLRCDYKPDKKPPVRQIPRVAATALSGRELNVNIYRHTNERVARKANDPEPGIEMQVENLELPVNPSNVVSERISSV
The entries below are paired with their reported log10 of Ki.
The common logarithm of Ki in nM is what is listed.

COc1ccc(C#CCCCc2ccccc2)cc1CCN; 2.31
COc1ccc(I)cc1CCN; 3.21
COc1ccc(OCCc2ccccc2)cc1CCN; 3.25
COc1ccc(-c2ccccc2)cc1CCN; 3.46

Consider the additional compound presented here.
Exam item: # returns recorded log10 of Ki (system: 5-hydroxytryptamine receptor 2C (Rattus norvegicus)) for `COc1ccc(CCCC2CCCCC2)cc1CCN`
Marked response: 2.30

====

target: 5-hydroxytryptamine receptor 2A (Rattus norvegicus, UniProt P14842); experiment: Binding affinity against rat 5-hydroxytryptamine 2A receptor using [3H]ketanserin as radioligand
The entries below are paired with their reported Ki.
Numeric answer only, unit nM assumed.

COc1ccc(CCCCc2ccccc2)cc1CCN; 89
COc1ccc(C#CCCCc2ccccc2)cc1CCN; 295

Exam item: # lookup: Ki of `COc1cc(OCCc2ccccc2)ccc1CCN`
Marked response: 172

Exam item: # lookup: Ki of `COc1ccc(CCCc2ccccc2)cc1CCN`
Marked response: 20

Exam item: # lookup: Ki of `COc1cc(CCCCCc2ccccc2)ccc1CCN`
Marked response: 72

Taken from ChEMBL document CHEMBL1134617.
